Origin of measurements: PubChem BioAssay (Tox21)

# TARGET: Luciferin 4-monooxygenase (Photinus pyralis)
# EXPERIMENTAL_DETAILS: qHTS assay to identify small molecule inhibitors of firefly luciferase (AID 1224835); note: nearly all actives have a fitted effect of over 25% in size; note: potency is the fitted concentration of half-maximal effect
# APPLIED_CONDITIONS: purified P. pyralis luciferase, luminescence inhibition; series mostly up to 115 µM
Records with an inconclusive call do not appear. The source made the active and inactive calls. Calls come from the whole dose curve; as a rule, active = well fitted inhibition curve with a large enough effect in the repeat runs; inconclusive = weak or mixed curves; inactive = flat fitted curve, though single readings scatter.
MEASURE: Potency

[[record]]
compound = "CO[Si](OC)(c1ccccc1)c1ccccc1"
target = "Luciferin 4-monooxygenase (Photinus pyralis)"
measure = "Potency"
experimental_result = "inactive"

[[record]]
compound = "O=C(Cl)c1ccc(Cl)cc1Cl"
target = "Luciferin 4-monooxygenase (Photinus pyralis)"
measure = "Potency"
experimental_result = "25.2 µM (active)"

[[record]]
compound = "CCC(=O)OC/C=C(\\C)CCC=C(C)C"
target = "Luciferin 4-monooxygenase (Photinus pyralis)"
measure = "Potency"
experimental_result = "inactive"

[[record]]
compound = "CCc1c(C)cc(N)c(CC)c1N"
target = "Luciferin 4-monooxygenase (Photinus pyralis)"
measure = "Potency"
experimental_result = "inactive"

[[record]]
compound = "CCCCCN=C(N)N/N=C/c1c[nH]c2ccc(OC)cc12"
target = "Luciferin 4-monooxygenase (Photinus pyralis)"
measure = "Potency"
experimental_result = "inactive"

[[record]]
compound = "CC(Cc1ccc(O)c(O)c1)C(C)Cc1ccc(O)c(O)c1 (configuration not stated)"
target = "Luciferin 4-monooxygenase (Photinus pyralis)"
measure = "Potency"
experimental_result = "71 µM (active)"

[[record]]
compound = "ClC(c1ccccc1)(c1ccccc1)c1ccccc1"
target = "Luciferin 4-monooxygenase (Photinus pyralis)"
measure = "Potency"
experimental_result = "inactive"

